Assay: Chemical stability of the compound in RPMI cell culture media assessed as half life at 2 mM
Format: physicochemical
measure: half-life at 2000 µM (h)
Answer format: numeric, h implied, no suffix.

Ask: Suppose we examine the molecule O=c1ccn([C@H]2CC[C@@H](COP(=O)(O)Nc3ccncc3)O2)c(=O)[nH]1 ; what half-life at 2000 µM value has been reported?
Reply: 32.1

Ask: What value of measured half-life at 2000 µM is listed for O=c1ccn([C@H]2CC[C@@H](COP(=O)(O)Nc3cccnc3)O2)c(=O)[nH]1 ?
Reply: 27.9

Ask: Recorded half-life at 2000 µM for Cc1cn([C@H]2C[C@H](N=[N+]=[N-])[C@@H](COP(=O)(O)O)O2)c(=O)[nH]c1=O [AZIDOTHYMIDINE MONOPHOSPHATE] , please?
Reply: 3.6

Ask: Fill blank: measured half-life at 2000 µM of the molecule Cc1cn([C@H]2C[C@H](N=[N+]=[N-])[C@@H](COP(=O)(O)Nc3cccnc3)O2)c(=O)[nH]c1=O is ____.
Reply: 73.3

----------
Exercise: state measured CC90 at 168 h for each of the compounds provided.
Assay: Cytotoxicity against human CEM-T4 cells assessed as cell viability after 7 days by MTT assay
Type: cell-based

Ask: I'd like to know its CC90 at 168 h. The compound in question is CCN(CC)CC.Cc1cn([C@H]2C[C@H](N=[N+]=[N-])[C@@H](COP(=O)(O)Nc3ccc(Cl)cc3)O2)c(=O)[nH]c1=O
Reply: 360 µM

Ask: Returns the measured CC90 at 168 h for the input compound. Input: Cc1cn([C@H]2C[C@H](N=[N+]=[N-])[C@@H](CO)O2)c(=O)[nH]c1=O [ZIDOVUDINE]
Reply: > 200 µM

Ask: What does the data say about its CC90 at 168 h? Entry: CCN(CC)CC.Cc1cn([C@H]2C[C@H](N=[N+]=[N-])[C@@H](COP(=O)(O)Nc3ccccc3)O2)c(=O)[nH]c1=O
Reply: > 200 µM

----------
Task for the reader: assign each of the following compounds its reported EC90.
Tested on: Human immunodeficiency virus 1
Assay: Antiviral activity against HIV1 infected in human CEM-T4 cells assessed as reduction in viral protein p24 production preincubated for 24 hrs measured after 8 days by MTT assay
Type: functional, organism-based
Settings: Human immunodeficiency virus 1, CEM-T4

Ask: I have this compound here, CCN(CC)CC.Cc1cn([C@H]2C[C@H](N=[N+]=[N-])[C@@H](COP(=O)(O)Nc3ccccc3)O2)c(=O)[nH]c1=O , and I need its recorded EC90.
Reply: > 10 µM

Ask: # query: EC90 of entry Nc1ccncc1
Reply: > 20 µM

Ask: Find the recorded EC90 belonging to O=c1ccn([C@H]2CC[C@@H](COP(=O)(O)Nc3cccnc3)O2)c(=O)[nH]1 and report it.
Reply: > 10 µM

Ask: Quick one: EC90 for Nc1ccccn1 ?
Reply: > 20 µM

Ask: Reported EC90, compound Nc1cccnc1 : ____
Reply: > 20 µM

----------
I'd appreciate it if you could supply half-life at 2000 µM values for the items below.
Assay: Chemical stability of the compound in RPMI cell culture media assessed as half life at 2 mM
Assay type: physicochemical

Ask: # query: half-life at 2000 µM of entry CCN(CC)CC.Cc1cn([C@H]2C[C@H](N=[N+]=[N-])[C@@H](COP(=O)(O)Nc3ccc(Cl)cc3)O2)c(=O)[nH]c1=O
Reply: > 120 h

Ask: What value of measured half-life at 2000 µM is listed for CCN(CC)CC.Cc1cn([C@H]2C[C@H](N=[N+]=[N-])[C@@H](COP(=O)(O)Nc3ccccc3)O2)c(=O)[nH]c1=O ?
Reply: > 120 h

Ask: So what does the record say about half-life at 2000 µM for Cc1cn([C@H]2C[C@H](N=[N+]=[N-])[C@@H](COP(=O)(O)Nc3ccncc3)O2)c(=O)[nH]c1=O ?
Reply: > 120 h
